# TARGET SYSTEM: cysteines in MDA-MB-231 and Ramos cells (Homo sapiens, UniProt Q9NP73)
# Sequence (Q9NP73 whole entry, the tested form may be a part): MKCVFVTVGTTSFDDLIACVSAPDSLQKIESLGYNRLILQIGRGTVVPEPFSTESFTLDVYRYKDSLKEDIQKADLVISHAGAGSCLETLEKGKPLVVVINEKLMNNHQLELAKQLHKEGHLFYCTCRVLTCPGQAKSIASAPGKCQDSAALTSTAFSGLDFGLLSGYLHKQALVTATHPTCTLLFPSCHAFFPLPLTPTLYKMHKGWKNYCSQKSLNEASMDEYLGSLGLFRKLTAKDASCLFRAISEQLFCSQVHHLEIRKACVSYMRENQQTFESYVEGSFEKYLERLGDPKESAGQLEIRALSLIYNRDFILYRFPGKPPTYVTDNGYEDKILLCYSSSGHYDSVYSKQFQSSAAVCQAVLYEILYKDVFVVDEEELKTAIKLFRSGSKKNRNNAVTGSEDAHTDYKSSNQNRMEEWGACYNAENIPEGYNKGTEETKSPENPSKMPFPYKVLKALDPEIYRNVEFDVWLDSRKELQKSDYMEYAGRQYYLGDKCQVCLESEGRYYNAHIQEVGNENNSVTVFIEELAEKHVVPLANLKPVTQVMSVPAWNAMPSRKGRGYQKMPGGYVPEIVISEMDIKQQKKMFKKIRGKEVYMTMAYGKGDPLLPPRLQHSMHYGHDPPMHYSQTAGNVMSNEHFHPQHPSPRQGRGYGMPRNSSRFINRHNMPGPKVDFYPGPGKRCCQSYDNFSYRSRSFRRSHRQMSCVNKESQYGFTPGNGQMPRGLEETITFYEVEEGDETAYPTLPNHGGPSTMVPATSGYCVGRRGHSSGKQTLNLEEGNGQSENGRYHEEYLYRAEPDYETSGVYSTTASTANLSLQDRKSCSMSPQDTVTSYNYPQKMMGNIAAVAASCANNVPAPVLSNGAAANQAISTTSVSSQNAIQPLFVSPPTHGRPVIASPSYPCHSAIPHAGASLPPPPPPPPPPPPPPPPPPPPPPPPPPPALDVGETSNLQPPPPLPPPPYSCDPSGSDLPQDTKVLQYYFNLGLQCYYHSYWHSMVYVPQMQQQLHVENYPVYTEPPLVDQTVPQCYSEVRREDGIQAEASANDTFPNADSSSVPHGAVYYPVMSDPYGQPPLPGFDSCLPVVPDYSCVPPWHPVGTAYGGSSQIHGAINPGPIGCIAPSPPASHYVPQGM
# TEST METHOD NOTES: Competitive isoTOP-ABPP in situ (fragment-treated cells)
# Type: cell-based
# APPLIED CONDITIONS: 200 μM, insitu, 231

- MOLECULE: "CC1CCc2ccccc2N1C(=O)CCl (stereo not drawn) [compound 45]"
  isoTOP-ABPP ratio Q9NP73_C86: 20.0
- MOLECULE: "Cc1ccc(C=C(C#N)C(=O)NCCN2CCOCC2)cc1 [compound 41]"
  isoTOP-ABPP ratio Q9NP73_C86: 0.5
- MOLECULE: "C=CC(=O)Nc1cc(F)c(N2CCN(C(=O)OC(C)(C)C)CC2)c(F)c1 [compound 38]"
  isoTOP-ABPP ratio Q9NP73_C86: 1.3
- MOLECULE: "O=C(CCl)Nc1cccc2ncccc12 [compound 51]"
  isoTOP-ABPP ratio Q9NP73_C86: 1.3
- MOLECULE: "CC(C)CCOCCNC(=O)CCl [compound 27]"
  isoTOP-ABPP ratio Q9NP73_C86: 0.4
- MOLECULE: "O=C(CCl)NCCc1c[nH]c2ccccc12 [compound 13]"
  isoTOP-ABPP ratio Q9NP73_C86: 0.9

----------
# TARGET SYSTEM: cysteines in MDA-MB-231 and Ramos cells (Homo sapiens)
# TEST METHOD NOTES: Competitive isoTOP-ABPP in situ (fragment-treated cells)
# Format: cell-based
# APPLIED CONDITIONS: 200 μM, insitu, 231
Lab note: anything with isoTOP-ABPP ratio P83731_C6 at or over 0.4 counts as YES; the rest go in NO.

- COMPOUND: "C=CC(=O)Nc1cc(F)c(N2CCN(C(=O)OC(C)(C)C)CC2)c(F)c1 [compound 38]"
  LABEL VALUE: "YES"
- COMPOUND: "O=C(CCl)NC(=O)NC12CC3CC(CC(C3)C1)C2 [compound 12]"
  LABEL VALUE: "NO"
- COMPOUND: "O=C(CCl)NCCc1c[nH]c2ccccc12 [compound 13]"
  LABEL VALUE: "YES"
- COMPOUND: "O=C(CCl)NC12CC3CC(CC(C3)C1)C2 [compound 21]"
  LABEL VALUE: "YES"
- COMPOUND: "CC1CCc2ccccc2N1C(=O)CCl (centres unmarked) [compound 45]"
  LABEL VALUE: "YES"
- COMPOUND: "Cc1ccc(C=C(C#N)C(=O)NCCN2CCOCC2)cc1 [compound 41]"
  LABEL VALUE: "NO"

----------
# TARGET SYSTEM: cysteines in MDA-MB-231 and Ramos cells (Homo sapiens, UniProt O15446)
# Sequence (O15446 whole entry, the tested form may be a part): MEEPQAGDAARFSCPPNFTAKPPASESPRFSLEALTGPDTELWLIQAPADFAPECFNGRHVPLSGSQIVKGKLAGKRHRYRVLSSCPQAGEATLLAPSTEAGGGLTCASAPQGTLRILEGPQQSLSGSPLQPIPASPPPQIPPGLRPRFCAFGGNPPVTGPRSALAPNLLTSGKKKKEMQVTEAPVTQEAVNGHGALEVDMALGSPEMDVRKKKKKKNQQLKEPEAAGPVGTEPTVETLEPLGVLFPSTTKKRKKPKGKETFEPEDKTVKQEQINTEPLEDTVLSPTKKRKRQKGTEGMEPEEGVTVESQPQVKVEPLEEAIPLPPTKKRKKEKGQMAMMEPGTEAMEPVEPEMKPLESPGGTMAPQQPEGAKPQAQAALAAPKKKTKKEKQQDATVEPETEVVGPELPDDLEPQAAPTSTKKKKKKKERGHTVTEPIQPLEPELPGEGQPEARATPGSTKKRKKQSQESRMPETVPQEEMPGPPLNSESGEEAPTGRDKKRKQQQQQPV
# TEST METHOD NOTES: Competitive isoTOP-ABPP in situ (fragment-treated cells)
# Assay type: cell-based
# APPLIED CONDITIONS: 200 μM, insitu, 231
METRIC: isoTOP-ABPP ratio, cysteine O15446_C86

- COMPOUND: "O=C(CCl)NC12CC3CC(CC(C3)C1)C2 [compound 21]"
  METRIC: "isoTOP-ABPP ratio, cysteine O15446_C86"
  MEAS VALUE: 1.7
- COMPOUND: "O=C(CCl)NC(=O)NC12CC3CC(CC(C3)C1)C2 [compound 12]"
  METRIC: "isoTOP-ABPP ratio, cysteine O15446_C86"
  MEAS VALUE: 3.3
- COMPOUND: "O=C(CCl)N1CCN(S(=O)(=O)c2ccccc2F)CC1 [compound 10]"
  METRIC: "isoTOP-ABPP ratio, cysteine O15446_C86"
  MEAS VALUE: 4.7
- COMPOUND: "O=C(CCl)NCCc1c[nH]c2ccccc12 [compound 13]"
  METRIC: "isoTOP-ABPP ratio, cysteine O15446_C86"
  MEAS VALUE: 1.3
